Measured values drawn from paper PMC9569640 for this set.

Listed here are compounds together with their documented pKd.
# Study System: SHIP2-SH2 E50A (Homo sapiens, UniProt O15357, E50A)
# Construct: The SHIP2 SH2 domain (hereafter represented by SHIP2-SH2)
# Sequence (O15357 21-117 E50A limits assumed): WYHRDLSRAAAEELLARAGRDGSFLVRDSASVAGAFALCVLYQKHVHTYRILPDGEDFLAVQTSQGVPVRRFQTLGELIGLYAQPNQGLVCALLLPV
# Assay Notes: Fluorescence polarization binding, SHIP2-SH2 mutant E50A
# Measurement Parameters: FP assay; FAM-labeled 13-mer phosphopeptide 100 nM; pH 7.5; n = 3 averaged; ± standard error of fitting; SEM; read-out: dissociation constant (KD) for SHIP2-SH2 E50A
Square brackets hold non-standard residues; d marks the D form. Peptide text beside a SMILES is read from it. pY = N[C@@H](Cc1ccc(OP(=O)(O)O)cc1)C(=O)O
Remember, pKd is on a log scale: it is -log10 of the molar concentration.

[
  {
    "Compound": "CC[C@H](C)[C@H](NC(=O)[C@@H]1CCCN1C(=O)[C@H](CCC(=O)O)NC(=O)[C@H](CC(N)=O)NC(=O)[C@@H](N)CCC(=O)O)C(=O)N[C@@H](Cc1ccc(OP(=O)(O)O)cc1)C(=O)N[C@@H](C)C(=O)N[C@@H](CCCCN)C(=O)N[C@H](C(=O)N[C@@H](CC(N)=O)C(=O)N[C@@H](CCCCN)C(=O)N[C@@H](CCCCN)C(=O)N[C@@H](CCCCN)C(=O)O)C(C)C [EPIYA-A] (H-ENEPI[pY]AKVNKKK-OH)",
    "pKd": 5.08
  }
]

[ask] Tell me the measured pKd of CC[C@H](C)[C@H](NC(=O)[C@@H](NC(=O)[C@H](C)NC(=O)[C@H](Cc1ccc(OP(=O)(O)O)cc1)NC(=O)[C@@H](NC(=O)[C@@H]1CCCN1C(=O)[C@H](CCC(=O)O)NC(=O)[C@@H]1CCCN1C(=O)[C@@H](N)CO)[C@@H](C)CC)[C@@H](C)O)C(=O)N[C@@H](CC(=O)O)C(=O)N[C@@H](CC(=O)O)C(=O)N[C@@H](CC(C)C)C(=O)NCC(=O)O [EPIYA-C] (H-SPEPI[pY]ATIDDLG-OH) , please.
[reply] 6.02

[ask] Recorded pKd for CC[C@H](C)[C@H](NC(=O)[C@@H]1CCCN1C(=O)[C@H](CCC(=O)O)NC(=O)[C@H](CCC(=O)O)NC(=O)[C@@H]1CCCN1)C(=O)N[C@@H](Cc1ccc(OP(=O)(O)O)cc1)C(=O)N[C@@H](C)C(=O)N[C@@H](CCC(N)=O)C(=O)N[C@H](C(=O)N[C@@H](C)C(=O)N[C@@H](CCCCN)C(=O)N[C@@H](CCCCN)C(=O)N[C@H](C(=O)O)C(C)C)C(C)C [EPIYA-B] (H-PEEPI[pY]AQVAKKV-OH) , please?
[reply] 5.18

[ask] // query pKd value for entry CC[C@H](C)[C@H](NC(=O)[C@@H](NC(=O)[C@H](C)NC(=O)[C@H](Cc1ccc(OP(=O)(O)O)cc1)NC(=O)[C@@H](NC(=O)[C@@H]1CCCN1C(=O)[C@H](CCC(=O)O)NC(=O)[C@@H]1CCCN1C(=O)[C@@H](N)CO)[C@@H](C)CC)[C@@H](C)O)C(=O)N[C@@H](CC(=O)O)C(=O)N[C@@H](Cc1ccccc1)C(=O)N[C@@H](CC(=O)O)C(=O)N[C@@H](CCC(=O)O)C(=O)O [EPIYA-D]
[reply] 5.94

###

compounds and their reported pKd
# Study System: SHIP2-SH2 S49A (Homo sapiens, UniProt O15357, S49A)
# Construct: The SHIP2 SH2 domain (hereafter represented by SHIP2-SH2)
# Assay Notes: Fluorescence polarization binding, SHIP2-SH2 mutant S49A
# Measurement Parameters: FP assay; FAM-labeled 13-mer phosphopeptide 100 nM; pH 7.5; n = 3 averaged; ± standard error of fitting; SEM; read-out: dissociation constant (KD) for SHIP2-SH2 S49A
Square brackets hold non-standard residues; d marks the D form. Peptide text beside a SMILES is read from it. pY = N[C@@H](Cc1ccc(OP(=O)(O)O)cc1)C(=O)O
By convention, pKd is the negative base-10 log of a molar concentration.

// below: answered compounds
[
  {
    "Compound": "CC[C@H](C)[C@H](NC(=O)[C@@H]1CCCN1C(=O)[C@H](CCC(=O)O)NC(=O)[C@H](CC(N)=O)NC(=O)[C@@H](N)CCC(=O)O)C(=O)N[C@@H](Cc1ccc(OP(=O)(O)O)cc1)C(=O)N[C@@H](C)C(=O)N[C@@H](CCCCN)C(=O)N[C@H](C(=O)N[C@@H](CC(N)=O)C(=O)N[C@@H](CCCCN)C(=O)N[C@@H](CCCCN)C(=O)N[C@@H](CCCCN)C(=O)O)C(C)C [EPIYA-A] (H-ENEPI[pY]AKVNKKK-OH)",
    "pKd": 3.38
  },
  {
    "Compound": "CC[C@H](C)[C@H](NC(=O)[C@@H](NC(=O)[C@H](C)NC(=O)[C@H](Cc1ccc(OP(=O)(O)O)cc1)NC(=O)[C@@H](NC(=O)[C@@H]1CCCN1C(=O)[C@H](CCC(=O)O)NC(=O)[C@@H]1CCCN1C(=O)[C@@H](N)CO)[C@@H](C)CC)[C@@H](C)O)C(=O)N[C@@H](CC(=O)O)C(=O)N[C@@H](Cc1ccccc1)C(=O)N[C@@H](CC(=O)O)C(=O)N[C@@H](CCC(=O)O)C(=O)O [EPIYA-D]",
    "pKd": 4.11
  },
  {
    "Compound": "CC[C@H](C)[C@H](NC(=O)[C@@H](NC(=O)[C@H](C)NC(=O)[C@H](Cc1ccc(OP(=O)(O)O)cc1)NC(=O)[C@@H](NC(=O)[C@@H]1CCCN1C(=O)[C@H](CCC(=O)O)NC(=O)[C@@H]1CCCN1C(=O)[C@@H](N)CO)[C@@H](C)CC)[C@@H](C)O)C(=O)N[C@@H](CC(=O)O)C(=O)N[C@@H](CC(=O)O)C(=O)N[C@@H](CC(C)C)C(=O)NCC(=O)O [EPIYA-C] (H-SPEPI[pY]ATIDDLG-OH)",
    "pKd": 4.11
  }
]

[ask] Requested read-out: pKd. Entry: CC[C@H](C)[C@H](NC(=O)[C@@H]1CCCN1C(=O)[C@H](CCC(=O)O)NC(=O)[C@H](CCC(=O)O)NC(=O)[C@@H]1CCCN1)C(=O)N[C@@H](Cc1ccc(OP(=O)(O)O)cc1)C(=O)N[C@@H](C)C(=O)N[C@@H](CCC(N)=O)C(=O)N[C@H](C(=O)N[C@@H](C)C(=O)N[C@@H](CCCCN)C(=O)N[C@@H](CCCCN)C(=O)N[C@H](C(=O)O)C(C)C)C(C)C [EPIYA-B] (H-PEEPI[pY]AQVAKKV-OH)
[reply] 3.52

###

Measured Kd accompanies every entry in the list below.
# Study System: SHIP2-SH2 R70A (Homo sapiens, UniProt O15357, R70A)
# Construct: The SHIP2 SH2 domain (hereafter represented by SHIP2-SH2)
# Sequence (O15357 21-117 R70A limits assumed): as the sequence (O15357 21-117 E50A limits assumed) above, with A30E, R50A counted along it
# Assay Notes: Fluorescence polarization binding, SHIP2-SH2 mutant R70A
# Measurement Parameters: FP assay; FAM-labeled 13-mer phosphopeptide 100 nM; pH 7.5; n = 3 averaged; ± standard error of fitting; SEM; read-out: dissociation constant (KD) for SHIP2-SH2 R70A
Square brackets hold non-standard residues; d marks the D form. Peptide text beside a SMILES is read from it. pY = N[C@@H](Cc1ccc(OP(=O)(O)O)cc1)C(=O)O

Worked examples, 3 compounds total:
[
  {
    "Compound": "CC[C@H](C)[C@H](NC(=O)[C@@H]1CCCN1C(=O)[C@H](CCC(=O)O)NC(=O)[C@H](CCC(=O)O)NC(=O)[C@@H]1CCCN1)C(=O)N[C@@H](Cc1ccc(OP(=O)(O)O)cc1)C(=O)N[C@@H](C)C(=O)N[C@@H](CCC(N)=O)C(=O)N[C@H](C(=O)N[C@@H](C)C(=O)N[C@@H](CCCCN)C(=O)N[C@@H](CCCCN)C(=O)N[C@H](C(=O)O)C(C)C)C(C)C [EPIYA-B] (H-PEEPI[pY]AQVAKKV-OH)",
    "Study System": "SHIP2-SH2 R70A (Homo sapiens, UniProt O15357, R70A)",
    "Kd": "532 µM"
  },
  {
    "Compound": "CC[C@H](C)[C@H](NC(=O)[C@@H](NC(=O)[C@H](C)NC(=O)[C@H](Cc1ccc(OP(=O)(O)O)cc1)NC(=O)[C@@H](NC(=O)[C@@H]1CCCN1C(=O)[C@H](CCC(=O)O)NC(=O)[C@@H]1CCCN1C(=O)[C@@H](N)CO)[C@@H](C)CC)[C@@H](C)O)C(=O)N[C@@H](CC(=O)O)C(=O)N[C@@H](CC(=O)O)C(=O)N[C@@H](CC(C)C)C(=O)NCC(=O)O [EPIYA-C] (H-SPEPI[pY]ATIDDLG-OH)",
    "Study System": "SHIP2-SH2 R70A (Homo sapiens, UniProt O15357, R70A)",
    "Kd": "119 µM"
  },
  {
    "Compound": "CC[C@H](C)[C@H](NC(=O)[C@@H]1CCCN1C(=O)[C@H](CCC(=O)O)NC(=O)[C@H](CC(N)=O)NC(=O)[C@@H](N)CCC(=O)O)C(=O)N[C@@H](Cc1ccc(OP(=O)(O)O)cc1)C(=O)N[C@@H](C)C(=O)N[C@@H](CCCCN)C(=O)N[C@H](C(=O)N[C@@H](CC(N)=O)C(=O)N[C@@H](CCCCN)C(=O)N[C@@H](CCCCN)C(=O)N[C@@H](CCCCN)C(=O)O)C(C)C [EPIYA-A] (H-ENEPI[pY]AKVNKKK-OH)",
    "Study System": "SHIP2-SH2 R70A (Homo sapiens, UniProt O15357, R70A)",
    "Kd": "539 µM"
  }
]

Next, consider the following compound.
[ask] Entry CC[C@H](C)[C@H](NC(=O)[C@@H](NC(=O)[C@H](C)NC(=O)[C@H](Cc1ccc(OP(=O)(O)O)cc1)NC(=O)[C@@H](NC(=O)[C@@H]1CCCN1C(=O)[C@H](CCC(=O)O)NC(=O)[C@@H]1CCCN1C(=O)[C@@H](N)CO)[C@@H](C)CC)[C@@H](C)O)C(=O)N[C@@H](CC(=O)O)C(=O)N[C@@H](Cc1ccccc1)C(=O)N[C@@H](CC(=O)O)C(=O)N[C@@H](CCC(=O)O)C(=O)O [EPIYA-D] has what Kd?
[reply] 116 µM
